System: ITK phosphorylation of its substrate, PLCγ1, at Y783
Experiment Description: ITK target modulation assay (phospho-Y783 PLCγ1 immunoblot in Jurkat T cells)
Type: cell-based
Condition Set: Homo sapiens, Jurkat, 2 h, 2 hours compound, CD3/CD28 Dynabeads stimulation 100 sec, anti-phospho-Y783 PLCγ1 immunoblot, read-out: PLC-γ Inhibition IC50
pIC50: −log10 of the molar value.
Endpoint Label: pIC50

Previously resolved entries follow.
{"Molecule": "CN(C)C/C=C/C(=O)Nc1cc(-c2cnc3[nH]cc(-c4ccncn4)c3c2)cc(C(F)(F)F)c1 [Example 49]", "pIC50": "≥ 6.00"}
{"Molecule": "COc1cc(-c2cnc3[nH]cc(-c4cccc(C#N)c4)c3c2)cc(N(C)C(=O)/C=C/CN(C)C)c1 [Example 64]", "pIC50": "≥ 6.00"}
{"Molecule": "C=CC(=O)Nc1cc(-c2cnc3[nH]cc(-c4cncnc4)c3c2)cc(C(F)(F)F)c1 [Example 67]", "pIC50": "≥ 6.00"}
{"Molecule": "C=CC(=O)Nc1cc(OC(F)(F)F)cc(-c2cnc3[nH]cc(-c4cccc(C#N)c4)c3c2)c1 [Example 47]", "pIC50": "5.30 to 6.00"}
{"Molecule": "C=CC(=O)Nc1cc(-c2cnc3[nH]cc(-c4ccnc5[nH]ccc45)c3c2)cc(C(F)(F)F)c1 [Example 25]", "pIC50": "≥ 6.00"}
{"Molecule": "CN(C)C/C=C/C(=O)Nc1cncc(-c2cnc3[nH]cc(-c4cccc(C#N)c4)c3c2)c1 [Example 20]", "pIC50": "≥ 6.00"}

**Q:** Consider the molecule C=CC(=O)N(C)c1cccc(-c2cnc3[nH]cc(-c4ccnc(OC)c4)c3c2)c1 [Example 2] and give its measured pIC50.
**A:** 5.30 to 6.00

**Q:** Entry COc1cc(-c2c[nH]c3ncc(-c4cncc(N(C)C(=O)/C=C/CN(C)C)c4)cc23)ccn1 [Example 73] : reported pIC50 = ?
**A:** ≥ 6.00

**Q:** I have this molecule here, COc1cc(NC(=O)/C=C/CN(C)C)cc(-c2cnc3[nH]cc(-c4ccncn4)c3c2)c1 [Example 52] , and I need its recorded pIC50.
**A:** 5.30 to 6.00

**Q:** State the recorded pIC50 for this entry: CN(C)C/C=C/C(=O)Nc1cc(-c2cnc3[nH]cc(-c4ccnc5c4ccn5C)c3c2)cc(C(F)(F)F)c1 [Example 55]
**A:** ≥ 6.00

**Q:** Which pIC50 is reported for this molecule? C=CC(=O)Nc1cncc(-c2cnc3[nH]cc(-c4ccnc(OC)c4)c3c2)c1 [Example 17]
**A:** ≥ 6.00

**Q:** Quick one: pIC50 of C=CC(=O)Nc1cc(-c2cnc3[nH]cc(-c4cccc(Cl)c4)c3c2)cc(C(F)(F)F)c1 [Example 58] ?
**A:** < 5.30

**Q:** May I ask what pIC50 has been recorded for CN(C)C/C=C/C(=O)Nc1cc(-c2cnc3[nH]cc(-c4ccnc(C#N)c4)c3c2)cc(C(F)(F)F)c1 [Example 40] ?
**A:** ≥ 6.00

**Q:** Look up pIC50: CNc1nccc(-c2c[nH]c3ncc(-c4cc(NC(=O)/C=C/CN(C)C)cc(OC)c4)cc23)n1 [Example 46]
**A:** 5.30 to 6.00

**Q:** Can you look up the measured pIC50 of CN(C)C/C=C/C(=O)N(C)c1cncc(-c2cnc3[nH]cc(-c4cccc(C#N)c4)c3c2)c1 [Example 72] for me?
**A:** 5.30 to 6.00

**Q:** Param item = Cc1cc(-c2c[nH]c3ncc(-c4cccc(NC(=O)/C=C/CN(C)C)c4)cc23)ccn1 [Example 48] ; retrieve measured pIC50.
**A:** ≥ 6.00

The reported numbers originate from patent US10316038B2.
